- target: mUSP18 (Mus musculus, UniProt Q9WTV6)
- Construct: (46-368); His-tag (N); made in house
- Sequence (Q9WTV6 46-368): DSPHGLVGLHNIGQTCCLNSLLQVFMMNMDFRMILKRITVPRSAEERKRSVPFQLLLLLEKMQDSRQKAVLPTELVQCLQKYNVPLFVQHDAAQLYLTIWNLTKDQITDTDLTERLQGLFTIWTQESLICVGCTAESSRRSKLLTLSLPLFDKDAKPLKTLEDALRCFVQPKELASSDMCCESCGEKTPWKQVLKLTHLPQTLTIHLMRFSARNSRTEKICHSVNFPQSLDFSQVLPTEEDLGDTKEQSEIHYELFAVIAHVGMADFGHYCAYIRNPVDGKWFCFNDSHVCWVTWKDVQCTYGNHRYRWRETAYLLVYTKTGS
- assayInfo: IC50 determination, fluorogenic ISG15CT-Rho-morpholine activity assay
- Type: biochemical, murine
- measurementConditions: after 30 min incubation; purified compound; ISG15CT-Rho-morpholine substrate
pIC50: −log10 of the molar value.
Form field: pIC50 (one value per entry).

| chemSmiles | target | pIC50 |
| --- | --- | --- |
| N#CN1CC[C@@H](NC(=O)c2cc(-c3cccc(Cl)c3)no2)C1 | mUSP18 (Mus musculus, UniProt Q9WTV6) | 7.10 |
| N#CN1CC[C@@H](NC(=O)c2ccc(F)c(F)c2)C1 | mUSP18 (Mus musculus, UniProt Q9WTV6) | 5.01 |
| N#CN1CC[C@@H](NC(=O)c2ccc(N3CCCC3)cc2F)C1 | mUSP18 (Mus musculus, UniProt Q9WTV6) | 5.26 |
| N#CN1CC[C@H](C(=O)Nc2ncc(N3CCOCC3)s2)C1 | mUSP18 (Mus musculus, UniProt Q9WTV6) | 5.29 |
| COc1ccccc1-c1cc(C(=O)N[C@@H]2CCN(C#N)C2)n[nH]1 | mUSP18 (Mus musculus, UniProt Q9WTV6) | 7.54 |

* * *

- target: mUSP18 (Mus musculus)
- Construct: (46-368); His-tag (N); made in house
- assayInfo: High-throughput screening, ISG15ct-RhoMP, single dose 1.25 µM
- Format: biochemical, murine
- measurementConditions: mUSP18 %inhibition; carboxylic acid (CA) building block alone; read-out: %inh CA only
Form field: inhibition at 1.25 µM (one value per entry).
propertyName: inhibition at 1.25 µM (%)

| molecule | endpointResult |
| --- | --- |
| COc1ccc(N2CCN(C(C)C(=O)O)CC2)cc1 (centres unmarked) | 7.09 |
| Cc1nn(-c2ccc(C(F)(F)F)cn2)c(C)c1CC(=O)O | 3.16 |
| O=C(O)c1ccc(OCn2cc(Cl)cn2)cc1 | 5.6 |
| Cn1nc(C(=O)O)cc1-c1cccnc1 | -0.67 |
| O=C(O)c1cc(S(=O)(=O)Nc2cccc(F)c2)ccc1F | -3.43 |
| Cc1cc(NS(=O)(=O)c2cccc(C(=O)O)c2)no1 | 2.04 |
| O=Cc1ccc(O)c(C(=O)O)c1 | 1.03 |
| Cc1ccc(NS(=O)(=O)c2cccc(C(=O)O)c2)cc1 | 21.2 |
| O=C(CC1(C(=O)O)CCCC1)N1CCOCC1 | 2.56 |
| CN(Cc1ccccc1)S(=O)(=O)c1ccc(C(=O)O)cc1 | 9.75 |
| O=C(O)c1ccn(-c2ccc(C(F)(F)F)cn2)n1 | -2.14 |
